Reported pIC50 values follow for various binders
Target: HLA A2302 (human)
Assay: 125I-probe competition, purified HLA
Expect pIC50 as a plain number equal to -log10 of the molar concentration.

Below, 5 binders whose answers are already recorded.
[
  {
    "Binder": "VFTFPHAFPF (modifications not checked) [HPV45.E1.578]",
    "pIC50": 7.80
  },
  {
    "Binder": "GYNTFYIEF (modifications not checked) [HPV18.E2.168]",
    "pIC50": 7.89
  },
  {
    "Binder": "YYMTDAGTW (modifications not checked) [HPV18.E2.142]",
    "pIC50": 7.85
  },
  {
    "Binder": "VYGTTLEKL (modifications not checked) [HPV31.E6.83]",
    "pIC50": 8.09
  },
  {
    "Binder": "SYFGMSFIHF (modifications not checked) [HPV18/45.E1.491]",
    "pIC50": 8.37
  }
]

Q: Entry VVFIYIPLF (modifications not checked) [HPV31.E5.64] : reported pIC50 = ?
Result: 6.97

Q: Query (binder): VYVFCFLLPM (modifications not checked) [HPV18.E5.52] ; field requested: pIC50
Result: 7.24

Q: Consider the binder FYSKVSEFRW (modifications not checked) [HPV31.E6.69] and give its measured pIC50.
Result: 8.06
